System: T1, human TGR12 (untagged) (human, UniProt Q96LB1 1-330)
T1 sequence: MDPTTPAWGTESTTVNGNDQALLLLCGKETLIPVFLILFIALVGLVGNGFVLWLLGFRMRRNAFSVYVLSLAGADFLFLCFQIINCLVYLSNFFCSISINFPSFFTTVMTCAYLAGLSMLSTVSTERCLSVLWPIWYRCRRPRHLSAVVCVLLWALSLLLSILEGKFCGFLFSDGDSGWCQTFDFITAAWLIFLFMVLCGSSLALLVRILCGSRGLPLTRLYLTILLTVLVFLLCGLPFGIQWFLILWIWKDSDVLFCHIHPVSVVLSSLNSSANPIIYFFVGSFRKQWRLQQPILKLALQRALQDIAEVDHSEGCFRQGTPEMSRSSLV
Test Description: cell-based or functional assay
Where no end group is shown, it is not given here.
Parameter: degranulation of LAD 2 (beta-hexosaminidase release, % of total) at 3 µM. Scope: all listed entries.
Provide only the numeric value, understood in %.

# count of solved cases: 3
binder="HSDGIFTDSYSRYRKQMAVKKYLAAVLGKRYKQRVKNK (peptide, UniProt P18509 132-169, looked up, not fully specified; ends and bridges not checked, domain: PACAP-38) [human PACAP38 (pituitary adenylate cyclase activating polypeptide 38)]" result_unit=% meas_value=63.3
binder="DRMPCRNFFWKTFSSCK (peptide, UniProt O00230 89-105, looked up, not fully specified; ends and bridges not checked) [human cortistatin-17]" result_unit=% meas_value=58.9
binder="HSDAVFTDNYTRLRKQMAVKKYLNSILN (peptide, UniProt P01282 125-152, looked up, not fully specified; ends and bridges not checked, domain: VIP; also called vasoactive intestinal peptide) [human VIP (vasoactive intestinal polypeptide)]" result_unit=% meas_value=76.1

Input HSDGIFTDSYSRYRKQMAVKKYLAAVL (peptide, UniProt P18509 132-158, looked up, not fully specified; ends and bridges not checked, domain: PACAP-27) [human PACAP27 (pituitary adenylate cyclase activating polypeptide 27)] . Output degranulation of LAD 2 (beta-hexosaminidase release, % of total) at 3 µM: 69.1

Values from patent US20100068208A1
